target: Human SARS-CoV-2_Wuhan S (SmT1) (SARS-CoV-2 (Wuhan), UniProt P0DTC2 14-1208); assay: SPR, VHH over immobilised S
assay_endpoint: pKd
Keep it numeric: pKd is minus log10 of the concentration in mol/L.

Illustrative cases are given below, each with its answer.
In: Given the binder NRCoV2-SR02 VHH (VHH) VHH: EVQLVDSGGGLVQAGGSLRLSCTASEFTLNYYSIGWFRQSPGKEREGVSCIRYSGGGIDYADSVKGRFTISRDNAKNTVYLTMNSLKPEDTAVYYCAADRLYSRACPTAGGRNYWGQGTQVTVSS , write its reported pKd.
Out: 9.33

In: Given the binder NRCoV2-MRed11 VHH (VHH) VHH: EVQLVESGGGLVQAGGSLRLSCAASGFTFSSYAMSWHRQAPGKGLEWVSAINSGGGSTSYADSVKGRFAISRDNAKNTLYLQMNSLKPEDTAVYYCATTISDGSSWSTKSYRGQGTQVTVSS , write its reported pKd.
Out: 8.21

In: Given the binder NRCoV2-18 VHH (VHH) VHH: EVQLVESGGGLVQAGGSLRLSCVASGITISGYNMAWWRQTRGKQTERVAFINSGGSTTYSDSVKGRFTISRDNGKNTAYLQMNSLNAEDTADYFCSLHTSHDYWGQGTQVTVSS , write its reported pKd.
Out: 9.49

Turning now to a further binder:
In: Given the binder NRCoV2-SR03 VHH (VHH) VHH: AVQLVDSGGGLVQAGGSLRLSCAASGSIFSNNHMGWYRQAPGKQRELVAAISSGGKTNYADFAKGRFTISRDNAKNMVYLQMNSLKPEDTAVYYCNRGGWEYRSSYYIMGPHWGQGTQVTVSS , write its reported pKd.
Out: 8.77
